Test system: EMT6 tumor-bearing model mice
Test: Biodistribution in tumor and organs of tumor-bearing mouse (Example 14)
Type: in vivo, mouse (Balb/c nu/nu)
Conditions: 120 minutes after administration, mean
Readout Name: Lung (% ID/g)

O=[N+]([O-])c1nc(CO)cn1CC(CO)(CO)C[18F]; 0.34
O=[N+]([O-])c1nccn1CC(O)C[18F] (stereo not shown) [[^18F]FMISO, [^18F]fluoromisonidazole, reference compound]; 2.69

a = O=[N+]([O-])c1nccn1CCC(CO)(CO)C[18F]
b = O=[N+]([O-])c1nccn1CC(CO)(CO)C[18F]
Between a and b , which one has the lower reported Lung value? // output: label of the selected item
b

Attribution: patent US9107964B2
